Data credit: PubChem BioAssay AID602399

System: Nicotinate-nucleotide adenylyltransferase NadD (Staphylococcus aureus N315)
method-description: inhibitors of S. aureus NadD, primary screen, biochemical, colorimetric, uHTS (AID 602399)
condition-description: purified NadD enzyme, colorimetric absorbance read-out; at 20 µM; active compounds read high
The whole screen tested about 360,000 compounds, of which about 2,800 (0.78%) were called active. For the sample, actives were picked, then their nearest neighbours and some compounds at random.
readout-label: inhibition (%)
State the answer as a number, implicitly in %.

In the examples that follow, each entry is paired with its recorded inhibition.
CC(=O)NCCn1c(SCC(=O)Nc2ccc(C)cc2)nc2ccccc2c1=O ... -6.19
O=C(NCC(O)c1nc2ccccc2[nH]1)c1ccc(Br)cc1 (configuration not stated) ... -3.28
Cc1cccn2c(=O)c3cc(C#N)c(=NC(=O)c4cccnc4)n(CC4CCCO4)c3nc12 (configuration not stated) ... 0.191
C=CCOc1ccc(/C=C/C(=O)OCC(=O)NCC2CCCO2)cc1 (configuration not stated) ... 0.0871
C=C1c2cccc(OC)c2O[C@H](C(=O)OCC)[C@@H]1CCCCCC ... 52.4

Specify inhibition for CC(c1ccccn1)N(C)C(=O)c1ccc2nc(Cc3cccc(Cl)c3)oc2c1 (configuration not stated) and stop.
-8.59

Specify inhibition for CC(C)Oc1ccc(/C=C(\NC(=O)/C=C/c2ccco2)C(=O)NCCc2nc3ccccc3[nH]2)cc1 and stop.
40.3

Specify inhibition for COC(=O)c1ccc(COC(=O)c2cnccn2)cc1 and stop.
-0.176

Specify inhibition for CCCN(CCC)c1ccc(C(O)c2nnc(-c3ccccc3)o2)cc1 (configuration not stated) and stop.
3.67

Specify inhibition for Cc1c(Cl)c([N+](=O)[O-])nn1Cc1ccc(C(=O)N/N=C\c2cc(Cl)ccc2O)o1 and stop.
35.1

Specify inhibition for Cc1ccc(CSCC2Nc3ccc(C(=O)N4CCN(c5ccc(F)cc5)CC4)cc3NC2=O)cc1 (configuration not stated) and stop.
73.7

Specify inhibition for Clc1cccc(-c2nc3nc4ccccc4nc3n2Cc2ccco2)c1 and stop.
-0.737

Specify inhibition for Cc1c(Cl)c([N+](=O)[O-])nn1CCCC(=O)NC(C)c1ccccc1 (configuration not stated) and stop.
1.25
